# target.desc: UniProt:Q8BFQ3
# Sequence (Q8BFQ3 whole entry): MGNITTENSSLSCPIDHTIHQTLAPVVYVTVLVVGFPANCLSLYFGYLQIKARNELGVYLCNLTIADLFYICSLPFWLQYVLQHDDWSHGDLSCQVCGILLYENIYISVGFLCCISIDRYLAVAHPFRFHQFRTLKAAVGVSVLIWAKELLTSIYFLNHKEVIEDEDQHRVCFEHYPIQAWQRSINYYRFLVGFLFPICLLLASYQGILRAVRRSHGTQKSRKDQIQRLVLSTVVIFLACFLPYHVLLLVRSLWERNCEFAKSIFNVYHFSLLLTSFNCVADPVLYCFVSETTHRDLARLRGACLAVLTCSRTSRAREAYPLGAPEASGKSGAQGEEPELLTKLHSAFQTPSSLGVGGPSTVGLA
# measurement.protocol: Positive allosteric modulation of mouse GPR68 expressed in HEK293T cells co-expressing Gs assessed as stimulation of proton-mediated cAMP production by measuring efficacy cooperativity in HBSS buffer containing pH 6.8 to 8.2 HEPES/pH 8.3 to 8.6 TAPS measured after 20 to 30 mins in presence of PDE inhibitor Ro 20-1724 by luciferase-glo reporter gene assay
# Assay type: functional, cell-based
attribute.measured: log(activity)
Just the number, please, no unit after it.

In the examples that follow, each entry is paired with its recorded log(activity).
Nc1nc(NCc2ccc(Cl)cc2)nc(-c2ccccc2CO)n1; -0.02
Nc1nc(NCc2ccc(Oc3ccccc3)cc2)nc(-c2c(F)cccc2CO)n1; 0.09

Tell me log(activity) reported for Nc1nc(NCCCCc2ccccc2)nc(-c2ccccc2CO)n1
0.08

Write down log(activity) measured for item Nc1nc(NCc2ccccc2)nc(-c2ccccc2CO)n1
0.04

Look up log(activity) of Nc1nc(NCCc2ccccc2)nc(-c2cc(Cl)ccc2CO)n1 and report it.
0.13

Identify measured log(activity) corresponding to Nc1nc(NCCCc2ccccc2)nc(-c2cc(Cl)ccc2CO)n1
0.13

---

# target.desc: G-protein coupled receptor 68 (Homo sapiens)
# measurement.protocol: Positive allosteric modulation of human GPR68 expressed in HEK293T cells co-expressing Gs assessed as stimulation of proton-mediated cAMP production by measuring allosteric affinity cooperativity in HBSS buffer containing pH 6.8 to 8.2 HEPES/pH 8.3 to 8.6 TAPS measured after 20 to 30 mins in presence of PDE inhibitor Ro 20-1724 by luciferase-glo reporter gene assay
# Type: functional, cell-based
log(activity) values, listed per item

COc1cccc(CNc2nc(N)nc(-c3ccccc3CO)n2)c1; 0.89
Nc1nc(NCCc2ccc(Oc3ccccc3)cc2)nc(-c2cc(Cl)ccc2CO)n1; 1.39
Nc1nc(NCc2ccccc2)nc(-c2cc(Cl)ccc2CO)n1; 1.2
Nc1nc(NCc2ccccc2)nc(-c2c(F)cccc2CO)n1; 1.15
Cc1cccc(CNc2nc(N)nc(-c3c(F)cccc3CO)n2)c1; 0.84

For G-protein coupled receptor 68 (Homo sapiens), give the measured log(activity) of the entry Nc1nc(NCc2ccccc2)nc(-c2cc(F)ccc2CO)n1
0.91

Answer briefly: log(activity) recorded on G-protein coupled receptor 68 (Homo sapiens) for Nc1nc(NCc2ccccc2)nc(-c2ccc(Cl)cc2CO)n1
1.01

Provide log(activity), recorded with G-protein coupled receptor 68 (Homo sapiens), of Nc1nc(NCc2ccccc2F)nc(-c2c(F)cccc2CO)n1
1.09

Print G-protein coupled receptor 68 (Homo sapiens) log(activity) for Nc1nc(NCc2ccc(Oc3ccccc3)cc2)nc(-c2ccccc2CO)n1 .
0.95

// fetch log(activity) for Nc1nc(NCc2ccc(Cl)cc2)nc(-c2ccccc2CO)n1 ; system: G-protein coupled receptor 68 (Homo sapiens)
0.49

Please indicate recorded log(activity) of Nc1nc(Nc2ccccc2)nc(-c2ccccc2CO)n1 measured with G-protein coupled receptor 68 (Homo sapiens).
0.72

Please report log(activity) with G-protein coupled receptor 68 (Homo sapiens) for item Nc1nc(NCc2ccc(OC3CC3)cc2)nc(-c2ccccc2CO)n1 .
0.67

---

Reported values of pKi for individual entries
# target.desc: 5-hydroxytryptamine receptor 2B (Homo sapiens, UniProt P41595)
# Sequence (P41595 whole entry): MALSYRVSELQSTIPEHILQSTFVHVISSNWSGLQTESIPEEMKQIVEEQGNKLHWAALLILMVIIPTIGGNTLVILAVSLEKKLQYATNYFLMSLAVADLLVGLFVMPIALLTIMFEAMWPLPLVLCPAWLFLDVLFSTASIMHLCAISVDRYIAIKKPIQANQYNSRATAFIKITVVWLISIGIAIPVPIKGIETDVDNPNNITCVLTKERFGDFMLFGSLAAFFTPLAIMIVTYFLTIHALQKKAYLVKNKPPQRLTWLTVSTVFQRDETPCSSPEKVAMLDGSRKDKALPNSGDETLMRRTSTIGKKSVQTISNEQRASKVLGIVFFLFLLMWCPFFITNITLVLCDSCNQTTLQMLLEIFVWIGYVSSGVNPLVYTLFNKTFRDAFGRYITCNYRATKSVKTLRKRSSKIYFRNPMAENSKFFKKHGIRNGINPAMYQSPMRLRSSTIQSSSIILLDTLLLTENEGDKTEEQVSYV
# measurement.protocol: Displacement of [3H]LSD from recombinant human 5HT2B stably expressed in HEK cell membranes incubated for 90 mins under dark condition by microbeta scintillation counting analysis
# condition.summary: read-out: Ki
Just so you know, pKi here is -log10 of the concentration in molar units; reply with that number alone.

Some entries whose results are on file:
Nc1nc(NCc2ccc(Oc3ccccc3)cc2)nc(-c2c(F)cccc2CO)n1; 6.66
Nc1nc(NCCc2ccccc2)nc(-c2cc(Cl)ccc2CO)n1; 6.68

Please examine the following record next.
Give recorded pKi. Nc1nc(NCCCc2ccccc2)nc(-c2cc(Cl)ccc2CO)n1
6.53
